assay: Tissue distribution test in rats (after Ritonavir); format: in vivo, SD male rats; settings: rat, po, 30 mg/kg, 30 mpk intragastric, with Ritonavir, lung, 1 h, read-out: Lung concentration at 1 h
observed property: concentration at 1 h (µM)
Hi! Could you send only the number? It should be in µM, unit omitted.

Q) Specify concentration at 1 h for `CC(C)(C)[C@H](NC(=O)C(F)(F)F)C(=O)N1[C@H]2C[C@@H]([C@H]1C(=O)N[C@H](C#N)C[C@@H]1CCNC1=O)C1(CC1)C2` and stop.
A) 18.4

---

experiment: Pharmacokinetics test of mice; type: in vivo, C57BL/6J male mice; conditions: mouse, po, 10 mg/kg, p.o. 10 mpk, plasma
observed property: Cmax (nM)
Hi! Could you send only the number? It should be in nM, unit omitted.

Q) Specify Cmax for `CC(C)(C)[C@H](NC(=O)C(F)(F)F)C(=O)N1[C@H]2C[C@@H]([C@H]1C(=O)N[C@H](C#N)C[C@@H]1CCNC1=O)C1(CC1)C2` and stop.
A) 1860
